Taken from patent US20040110821A1.

# TARGET_OR_SYSTEM: human 5HT1E receptor (Homo sapiens)
# Sequence (P28566 whole entry): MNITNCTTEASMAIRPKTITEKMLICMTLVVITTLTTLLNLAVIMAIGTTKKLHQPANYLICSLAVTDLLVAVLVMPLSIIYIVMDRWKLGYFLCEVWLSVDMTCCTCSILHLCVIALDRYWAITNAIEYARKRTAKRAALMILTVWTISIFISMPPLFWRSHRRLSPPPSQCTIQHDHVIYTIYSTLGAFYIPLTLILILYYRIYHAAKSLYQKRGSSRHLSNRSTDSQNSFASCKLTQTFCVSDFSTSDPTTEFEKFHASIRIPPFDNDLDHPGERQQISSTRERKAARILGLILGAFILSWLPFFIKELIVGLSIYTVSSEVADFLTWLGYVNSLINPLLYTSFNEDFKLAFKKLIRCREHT

>  <SMILES_REPR>
O=C1C(=Nc2cccc(C(F)(F)F)c2)c2ccccc2N1c1ccccc1

>  <Ki [µM]>
18.9

$$$$

----------
# TARGET_OR_SYSTEM: human GAL2 receptor (Homo sapiens)
# Construct: expressed in transfected cells
# Sequence (O43603 whole entry): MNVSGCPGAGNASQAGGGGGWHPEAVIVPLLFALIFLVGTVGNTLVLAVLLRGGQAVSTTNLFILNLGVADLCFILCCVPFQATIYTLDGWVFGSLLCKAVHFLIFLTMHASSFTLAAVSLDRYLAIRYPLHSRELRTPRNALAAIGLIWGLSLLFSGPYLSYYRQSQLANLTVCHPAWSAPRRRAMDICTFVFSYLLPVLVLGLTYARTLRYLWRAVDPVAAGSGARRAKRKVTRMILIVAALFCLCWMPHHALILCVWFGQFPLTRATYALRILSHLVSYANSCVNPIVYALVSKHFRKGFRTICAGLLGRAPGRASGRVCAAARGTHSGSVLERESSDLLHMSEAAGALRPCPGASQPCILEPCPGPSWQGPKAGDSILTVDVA
# EXPERIMENT_DESCRIPTION: Radioligand binding at cloned human GAL2 receptor
# ASSAY_SETUP: pyrimidines, Tables 1-3, read-out: Ki (nM) GalR2

>  <COMPOUND>
COCCN(CCOC)c1nc(Nc2ccc(C)cc2)cc(N2CCCCC2)n1 [Example 45]

>  <Ki>
> 5000 nM

$$$$
>  <COMPOUND>
Cc1ccc(Nc2cc(N(C)C)nc(Nc3ccc(Cl)c(Cl)c3)n2)cc1 [Example 55]

>  <Ki>
> 5000 nM

$$$$
>  <COMPOUND>
CN(C)c1cc(NC2CCCCC2)nc(Nc2ccccc2)n1 [Example 66]

>  <Ki>
> 5000 nM

$$$$
>  <COMPOUND>
Cc1ccc(Nc2cc(N3CCCCC3)nc(N3CCN(Cc4ccccc4)CC3)n2)cc1 [Example 23]

>  <Ki>
> 5000 nM

$$$$
>  <COMPOUND>
Cc1cccc(Nc2cc(N(C)C)nc(Nc3ccccc3)n2)c1 [Example 52]

>  <Ki>
> 5000 nM

$$$$
>  <COMPOUND>
Cc1ccc(Nc2cc(N(C)C)nc(Nc3ccc(C)cc3)n2)cc1 [Example 56]

>  <Ki>
> 5000 nM

$$$$
